src = the supplement of paper PMC10567573

- test: protein stability index of a GFP-peptide fusion (GPS, HEK-293T) (PSI 1-6); higher = more stable;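 note: 24-mer peptide tiles fused after GFP, lentivirally expressed, FACS-sorted into six equal bins by GFP/DsRed ratio, decoded by Illumina sequencing, PSI is the read-weighted mean bin number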
- test-context: treatment: DMSO; c terminus: a fixed tail appended
Catalogue of protein stability index readings, one per entry.
outcome-measure: protein stability index

residue-sequence: GVRESETEQGFGEDLEDLGAVAPP [NFE2L1]
outcome-measure: protein stability index
recorded-value: 5.76

residue-sequence: QLRLLQAPLQADLTEQVWKVQDAL [SCARA5]
outcome-measure: protein stability index
recorded-value: 3.15

residue-sequence: KLGAPLSGLQGLPECTRCGHGIVG [PDLIM4]
outcome-measure: protein stability index
recorded-value: 2.65

residue-sequence: CDALRTLAEARRLFPGRVSVDLML [RSAD1]
outcome-measure: protein stability index
recorded-value: 2.05

residue-sequence: SPAKASQASKLRASKEEKEDWLSH [FBF1]
outcome-measure: protein stability index
recorded-value: 4.92

residue-sequence: EDQEEWHAQVVEELSNFKSQKVLG [ZBED1]
outcome-measure: protein stability index
recorded-value: 5.41

residue-sequence: LSPTQRQKNFELAFTMAENLANCE [SMTNL2]
outcome-measure: protein stability index
recorded-value: 3.39

residue-sequence: MYLSPPSIHCLGPIKLELLEPKAN [VPS39]
outcome-measure: protein stability index
recorded-value: 2.26

residue-sequence: CLPPEPSPDDPESVKIIFKLPNDS [FAF2]
outcome-measure: protein stability index
recorded-value: 4.76

residue-sequence: GGTVKLADFGLARIYSYQMALTPV [CDK4]
outcome-measure: protein stability index
recorded-value: 2.36

residue-sequence: PLLCPSYQSYFKTIEELQQKILCS [KRT33B]
outcome-measure: protein stability index
recorded-value: 2.56

residue-sequence: NRRLRALEEQGATWRHRETLIIAV [FATE1]
outcome-measure: protein stability index
recorded-value: 2.46

residue-sequence: YYPTSSSTSFMSSSSSSSSWLTRR [EMD]
outcome-measure: protein stability index
recorded-value: 3.23

residue-sequence: DVKDWWLFGFYFCMPLVCTAIFYT [EDNRA]
outcome-measure: protein stability index
recorded-value: 2.76

residue-sequence: RFHDPSPAQSHTLQANDVFHKQQW [NET1]
outcome-measure: protein stability index
recorded-value: 3.33

residue-sequence: KSPPQLRQFLPEEFMKTLEKTGPQ [DENND6A]
outcome-measure: protein stability index
recorded-value: 4.63

residue-sequence: DKVRALEEANADLEVKIHDWYQKQ [KRT15]
outcome-measure: protein stability index
recorded-value: 4.4

residue-sequence: DQGGPVEILPFLYLGSAYHASKCE [DUSP5]
outcome-measure: protein stability index
recorded-value: 2.34

residue-sequence: PPDTVSRTGLEKAAAGAVGLERRD [SPDEF]
outcome-measure: protein stability index
recorded-value: 5.04

residue-sequence: QIEKTTNREACRDLSGRRLRDVNH [SDE2]
outcome-measure: protein stability index
recorded-value: 4.18

residue-sequence: DLKARIDQNTVVTRQLSEENANLQ [MTUS2]
outcome-measure: protein stability index
recorded-value: 4.83

residue-sequence: LIQRKKVHVFGDELSLVTLFRCIQ [TNFSF13B]
outcome-measure: protein stability index
recorded-value: 2.25

residue-sequence: DKMEGNPICVQIPWDKNPEALAKW [CRY1]
outcome-measure: protein stability index
recorded-value: 4.54

residue-sequence: ATTASPAKVDSSGVIDLFGDAFGS [SNAP91]
outcome-measure: protein stability index
recorded-value: 4.06

residue-sequence: YPPFWDEDQHRLYQQIKAGAYDFP [CAMK2D]
outcome-measure: protein stability index
recorded-value: 2.56

residue-sequence: HLFAGAEVILLVVMAYDRYMAICK [OR4A15]
outcome-measure: protein stability index
recorded-value: 2.67

residue-sequence: DWGPCSGSCGQGRTIRHVYCKTSD [ADAMTSL2]
outcome-measure: protein stability index
recorded-value: 3.43

residue-sequence: RVDFEEFVELIGPKLREETAHMLG [CABP4]
outcome-measure: protein stability index
recorded-value: 2.58

residue-sequence: GGGADTGTGGEEVEALQLSARWLE [FBXO33]
outcome-measure: protein stability index
recorded-value: 4.91

residue-sequence: PSRAKPPTEGAGSPAKASQASKLR [FBF1]
outcome-measure: protein stability index
recorded-value: 5.16

residue-sequence: LKKGESECQYYIDKLEYLDEKQRD [NET1]
outcome-measure: protein stability index
recorded-value: 4.55

residue-sequence: INRCSVLRQLGCKDGKNWNSNQAT [SPOPL]
outcome-measure: protein stability index
recorded-value: 2.65

residue-sequence: PMPVSQECFETLRGDERILSILRH [CHGA]
outcome-measure: protein stability index
recorded-value: 3.29

residue-sequence: EDFTNTLRELGHAEHEITELTATF [PKD2L1]
outcome-measure: protein stability index
recorded-value: 4.43

residue-sequence: ELLTGQPLWPGKSDVDQLYLIIRT [CDKL4]
outcome-measure: protein stability index
recorded-value: 2.31

residue-sequence: GEQDTWAGEGAEALARNLLVDGET [NFE2L1]
outcome-measure: protein stability index
recorded-value: 5.18

====

- test: protein stability index of a GFP-peptide fusion (GPS, HEK-293T) (PSI 1-6); higher = more stable
- test-context: treatment: DMSO; c terminus: a fixed tail appended
outcome-measure: protein stability index

residue-sequence: VSGKCEPIGCDGVLFSTHTLDKCG [ADAMTSL2]
outcome-measure: protein stability index
recorded-value: 3.41
--
residue-sequence: ARLLQEGGGGVAAVVVLDQGSRHW [DUSP5]
outcome-measure: protein stability index
recorded-value: 2.64
--
residue-sequence: RKKEAKRKISSLSFTLEEEEEGGE [FAM50A]
outcome-measure: protein stability index
recorded-value: 5.33
--
residue-sequence: CGTPLRKSNFRVQLFEDPTVDKEV [MNAT1]
outcome-measure: protein stability index
recorded-value: 3.84
--
residue-sequence: TTLDEFPLTRLGQLKACTNFDDIL [KCNG1]
outcome-measure: protein stability index
recorded-value: 2.99
--
residue-sequence: QTNSETAVVALTQDQPSEAATGGA [HDAC6]
outcome-measure: protein stability index
recorded-value: 5.31
--
residue-sequence: MPHARTETSVGTYESHSTSELEDL [TPD52L3]
outcome-measure: protein stability index
recorded-value: 5.43

====

- test: protein stability index of a GFP-peptide fusion (GPS, HEK-293T) (PSI 1-6); higher = more stable
- test-context: treatment: DMSO; c terminus: a fixed tail appended
Catalogue of protein stability index readings, one per entry.
outcome-measure: protein stability index

residue-sequence: VLCLLAADEDDDRDVALQIHFTLI [GADD45A]
recorded-value: 3.49
//
residue-sequence: TTARERPCVRPGVSGSPVTQNHAA [FBF1]
recorded-value: 4.33
//
residue-sequence: FERLCLTWMFFFMMCVAERTYKQR [PHTF1]
recorded-value: 2.82
//
residue-sequence: RLDASTSHQNLRVDDLSVEWDAMG [FSD1]
recorded-value: 4.51
//
residue-sequence: FDTLATVGTGTFGRVHLVKEKTAK [PRKX]
recorded-value: 4.66
//
residue-sequence: SEALASTRILKHSPESSRGQCGEN [GLIPR2]
recorded-value: 5.29
//
residue-sequence: SCRELLRIADKFTQHNFQEVMESE [KLHL20]
recorded-value: 2.17
//
residue-sequence: DRFYVINYLVRLSFHNLKFDCSTA [ZNF277]
recorded-value: 2.98
//
residue-sequence: VQNGTYLQRVLQNCPWPMSCPGSS [EMID1]
recorded-value: 2.12
//
residue-sequence: NPFKERICRVFSTSPAKDSLSFED [CIB1]
recorded-value: 2.77
//
residue-sequence: EFQPAKCTDKENALKLFPVQPCSA [FAM189A2]
recorded-value: 3.97
//
residue-sequence: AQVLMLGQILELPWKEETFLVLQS [FANCE]
recorded-value: 2.47
//
residue-sequence: EFPEDPEFEAVVRQAELAIERCIF [PI4K2A]
recorded-value: 2.72
//
residue-sequence: MKFVPRYSLVLELSDSGAFRRSLH [APMAP]
recorded-value: 2.17
//
residue-sequence: SGTCSPLRHSFQKQQREKTRWLNS [ADD1]
recorded-value: 2.96
//
residue-sequence: WVEQAYADKCVCGPSAPPAPTPPS [TIAF1]
recorded-value: 3.9
//
residue-sequence: DVLKYSYVRLVCKDVRAPSRPAVG [ZSWIM9]
recorded-value: 2.25
//
residue-sequence: SLSDQMSVLQSVWMEVLVLGVAQR [ESRRA]
recorded-value: 3.33
//
residue-sequence: DITRYYLCLQLRDDIVSGRLPCSF [EPB41L3]
recorded-value: 2.97
//
residue-sequence: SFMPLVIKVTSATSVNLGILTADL [SLC35F2]
recorded-value: 2.7
//
residue-sequence: AAHRLARRLYHLEGFQRCDVARQL [PSD2]
recorded-value: 2.21
//
residue-sequence: FRQLCYQETPGPREALTRLQELCY [ZSCAN9]
recorded-value: 2.48
//
residue-sequence: KQMSFLEKRGCPRTALEYCKLILS [TCF25]
recorded-value: 3.12
//
residue-sequence: LLDRARGAAAQGQTQTVAAQAQAL [PI4K2A]
recorded-value: 4.3
//
residue-sequence: YSNTKENGINGELTSADRETAEEV [MAP2]
recorded-value: 5.47
//
residue-sequence: MEKATVPVAAATAAEGEGSPPAVA [ANKRD17]
recorded-value: 5.67
//
residue-sequence: PFAPEPTPPTTTAEIATASASAST [SNAP91]
recorded-value: 5.37
//
residue-sequence: GATYLELHSLDDFYIGKYFGGVLE [RHOBTB3]
recorded-value: 2.6
//
residue-sequence: ARGIAGEKFDIVKKWGINTYKCTK [ARFIP2]
recorded-value: 3.3
//
residue-sequence: ECKKLFQVPEEMSRCRNSYTEQEL [DLC1]
recorded-value: 3.76
//
residue-sequence: YDYLRKLFTDLFDRKGYMFDYEYD [CSNK1G3]
recorded-value: 2.11
//
residue-sequence: SCCMTEEIFGPVTCVVPFDSEEEV [ALDH8A1]
recorded-value: 4.71
//
residue-sequence: QGLFFDMEAYLPKKNGLYLSLVLG [TMEM120A]
recorded-value: 2.67
//
residue-sequence: EDVPLAAKLVDLPCVIESLRTLDK [TAF7L]
recorded-value: 3.64
